Tested on: i-motif DNA
Assay: Displacement of thiazole orange from human telomeric 1ELN i-motif DNA at 10 equiv. at pH 5.5 by fluorescent intercalator displacement assay
Assay type: nucleic-acid assay
readout.kind: Activity (%)
Report only the number, with the unit % understood.

# get_value(readout='Activity', item= `OC[C@H]1O[C@@H](O[C@@H]2[C@@H](CO)O[C@](O)(CO)[C@H]2O)[C@H](O)[C@@H](O)[C@H]1O` )
-28.4

Tell me the measured Activity of `COC(=O)C1=CO[C@@H](O[C@@H]2O[C@H](CO)[C@@H](O)[C@H](O)[C@H]2O)[C@@H]2C(CO)=CC[C@H]12` , please.
-9.5

Reported Activity for `O=C(O)[C@H]1O[C@@H](Oc2cc3oc(-c4ccccc4)cc(=O)c3c(O)c2O)[C@H](O)[C@@H](O)[C@@H]1O` : what is it?
12.2

Record request: Activity value, item `O=c1c(-c2ccc(O)cc2)coc2cc(O[C@@H]3O[C@H](CO)[C@@H](O)[C@H](O)[C@H]3O)cc(O)c12`
0.6

Data request, read-out Activity, for `O=C(O)C1=CO[C@@H](O[C@@H]2O[C@H](CO)[C@@H](O)[C@H](O)[C@H]2O)[C@@H]2C(CO)=CC[C@H]12`
-10.2

// returns reported Activity for input `O=c1c(-c2ccc(O)cc2)coc2cc(O[C@@H]3O[C@H](CO)[C@@H](O)[C@H](O)[C@H]3O)ccc12`
-4.2

* * *

System: Quadruplex DNA
Test: Displacement of thiazole orange from human ILPR G4 quadruplex DNA at 10 equiv. at pH 7.4 by fluorescent intercalator displacement assay
Type: nucleic-acid assay
readout.kind: Activity (%)
Respond numerically; units are % and should not be typed.

Field request: Activity | item: `O=C(O)C1=CO[C@@H](O[C@@H]2O[C@H](CO)[C@@H](O)[C@H](O)[C@H]2O)[C@@H]2C(CO)=CC[C@H]12`
4.1

Please report the recorded Activity for `OC[C@H]1O[C@@H](O[C@@H]2[C@@H](CO)O[C@](O)(CO)[C@H]2O)[C@H](O)[C@@H](O)[C@H]1O` .
0.9

Name the recorded Activity for `COC(=O)C1=CO[C@@H](O[C@@H]2O[C@H](CO)[C@@H](O)[C@H](O)[C@H]2O)[C@@H]2C(CO)=CC[C@H]12` .
-6.7

Any idea what Activity was measured for `O=c1c(-c2ccc(O)cc2)coc2cc(O[C@@H]3O[C@H](CO)[C@@H](O)[C@H](O)[C@H]3O)cc(O)c12` ?
1.6

Activity for `O=c1c(-c2ccc(O)cc2)coc2cc(O[C@@H]3O[C@H](CO)[C@@H](O)[C@H](O)[C@H]3O)ccc12` ?
2.6

Please look up its Activity: `O=C(O)[C@H]1O[C@@H](Oc2cc3oc(-c4ccccc4)cc(=O)c3c(O)c2O)[C@H](O)[C@@H](O)[C@@H]1O`
4.9

* * *

Target: i-motif DNA
Assay: Binding affinity to human c-Myc promoter i-motif DNA by SPR analysis
Format: nucleic-acid assay
readout.kind: pKd
Field pKd (float): negative decimal logarithm of the concentration in molar.

Data request, read-out pKd, for NC[C@H]1O[C@H](O[C@H]2[C@H](O)[C@@H](O[C@H]3O[C@H](CO)[C@@H](O)[C@H](N)[C@H]3O)[C@H](N)C[C@@H]2N)[C@H](N)C[C@@H]1O [TOBRAMYCIN]
4.89

* * *

Tested on: i-motif DNA
Test: Displacement of thiazole orange from human telomeric 1ELN i-motif DNA at 100 equiv. at pH 5.5 by fluorescent intercalator displacement assay
Type: nucleic-acid assay
readout.kind: Activity (%)
State just the number; it will be interpreted in %.

What does the data say about its Activity? Entry: `O=c1c(-c2ccc(O)cc2)coc2cc(O[C@@H]3O[C@H](CO)[C@@H](O)[C@H](O)[C@H]3O)cc(O)c12`
19.3

Need Activity of `O=C(O)[C@H]1O[C@@H](Oc2cc3oc(-c4ccccc4)cc(=O)c3c(O)c2O)[C@H](O)[C@@H](O)[C@@H]1O` , thanks.
36.5

Recorded Activity of `OC[C@H]1O[C@@H](O[C@@H]2[C@@H](CO)O[C@](O)(CO)[C@H]2O)[C@H](O)[C@@H](O)[C@H]1O` , please.
20.2

For `O=C(O)C1=CO[C@@H](O[C@@H]2O[C@H](CO)[C@@H](O)[C@H](O)[C@H]2O)[C@@H]2C(CO)=CC[C@H]12` , what is its reported Activity?
22.9

Which Activity is reported for this molecule? `COC(=O)C1=CO[C@@H](O[C@@H]2O[C@H](CO)[C@@H](O)[C@H](O)[C@H]2O)[C@@H]2C(CO)=CC[C@H]12`
32.3

Bench note: what Activity did `O=c1c(-c2ccc(O)cc2)coc2cc(O[C@@H]3O[C@H](CO)[C@@H](O)[C@H](O)[C@H]3O)ccc12` show?
20.3

* * *

System: i-motif DNA
Assay: Displacement of thiazole orange from human ILPR i-motif DNA at 100 equiv. at pH 7.4 by fluorescent intercalator displacement assay
Assay type: nucleic-acid assay
Label t when Activity is strictly below 30%; otherwise label f.

Activity strictly < 30% for this molecule? `OC[C@H]1O[C@@H](O[C@@H]2[C@@H](CO)O[C@](O)(CO)[C@H]2O)[C@H](O)[C@@H](O)[C@H]1O`
f

Report whether reported Activity is lower than 30% (strictly) for `O=C(O)[C@H]1O[C@@H](Oc2cc3oc(-c4ccccc4)cc(=O)c3c(O)c2O)[C@H](O)[C@@H](O)[C@@H]1O`
f

Lab note: confirm whether the reported Activity for this molecule is below 30%, equality not counting. molecule: `O=c1c(-c2ccc(O)cc2)coc2cc(O[C@@H]3O[C@H](CO)[C@@H](O)[C@H](O)[C@H]3O)cc(O)c12`
f

Would you kindly verify if Activity of `O=C(O)C1=CO[C@@H](O[C@@H]2O[C@H](CO)[C@@H](O)[C@H](O)[C@H]2O)[C@@H]2C(CO)=CC[C@H]12` is strictly less than 30%?
t

Here's an entry: `O=c1c(-c2ccc(O)cc2)coc2cc(O[C@@H]3O[C@H](CO)[C@@H](O)[C@H](O)[C@H]3O)ccc12` . Is its Activity below 30%?
t

Say whether its Activity is strictly beneath 30%. Entry: `COC(=O)C1=CO[C@@H](O[C@@H]2O[C@H](CO)[C@@H](O)[C@H](O)[C@H]2O)[C@@H]2C(CO)=CC[C@H]12`
f

* * *

Test system: i-motif DNA
Experiment: Displacement of thiazole orange from human telomeric 1ELN i-motif DNA at 100 equiv. at pH 7.4 by fluorescent intercalator displacement assay
Format: nucleic-acid assay
readout.kind: Activity (%)
Numbers only here, please. The scale is %.

Form field: reported Activity of `O=C(O)[C@H]1O[C@@H](Oc2cc3oc(-c4ccccc4)cc(=O)c3c(O)c2O)[C@H](O)[C@@H](O)[C@@H]1O`
-91.2

// Activity lookup, key: `OC[C@H]1O[C@@H](O[C@@H]2[C@@H](CO)O[C@](O)(CO)[C@H]2O)[C@H](O)[C@@H](O)[C@H]1O`
-68

Please look up its Activity: `O=C(O)C1=CO[C@@H](O[C@@H]2O[C@H](CO)[C@@H](O)[C@H](O)[C@H]2O)[C@@H]2C(CO)=CC[C@H]12`
-37.8

Value lookup for Activity; key = `COC(=O)C1=CO[C@@H](O[C@@H]2O[C@H](CO)[C@@H](O)[C@H](O)[C@H]2O)[C@@H]2C(CO)=CC[C@H]12`
-84.1

What Activity value was documented for this compound, `O=c1c(-c2ccc(O)cc2)coc2cc(O[C@@H]3O[C@H](CO)[C@@H](O)[C@H](O)[C@H]3O)ccc12` ?
-154

Consider the compound `O=c1c(-c2ccc(O)cc2)coc2cc(O[C@@H]3O[C@H](CO)[C@@H](O)[C@H](O)[C@H]3O)cc(O)c12` and give its measured Activity.
-288

* * *

Could you please report measured ΔTm for the items listed next?
System: i-motif DNA
Assay: Binding affinity to human ILPR i-motif DNA assessed as change in melting temperature at 20 uM at pH 5.5 by FRET assay
Type: nucleic-acid assay
Express it in °C; write the number only.

Entry `O=C(O)C1=CO[C@@H](O[C@@H]2O[C@H](CO)[C@@H](O)[C@H](O)[C@H]2O)[C@@H]2C(CO)=CC[C@H]12` has what ΔTm?
-0.3

Return reported ΔTm; argument: `COC(=O)C1=CO[C@@H](O[C@@H]2O[C@H](CO)[C@@H](O)[C@H](O)[C@H]2O)[C@@H]2C(CO)=CC[C@H]12`
-0.1

Fill blank: measured ΔTm of the compound `OC[C@H]1O[C@@H](O[C@@H]2[C@@H](CO)O[C@](O)(CO)[C@H]2O)[C@H](O)[C@@H](O)[C@H]1O` is ____.
-0.3

Value lookup for ΔTm; key = `O=c1ccc2cc(O[C@@H]3O[C@H](CO)[C@@H](O)[C@H](O)[C@H]3O)c(O)cc2o1`
0

Given the entry `O=c1c(-c2ccc(O)cc2)coc2cc(O[C@@H]3O[C@H](CO)[C@@H](O)[C@H](O)[C@H]3O)ccc12` , report its measured ΔTm.
-0.1

May I ask what ΔTm has been recorded for `O=C(O)[C@H]1O[C@@H](Oc2cc3oc(-c4ccccc4)cc(=O)c3c(O)c2O)[C@H](O)[C@@H](O)[C@@H]1O` ?
-0.3

Can you share its ΔTm? I mean this compound: `O=c1c(-c2ccc(O)cc2)coc2cc(O[C@@H]3O[C@H](CO)[C@@H](O)[C@H](O)[C@H]3O)cc(O)c12`
-0.4

Values were extracted from ChEMBL document CHEMBL5104132.
